Target: G-protein coupled receptor 55 (Homo sapiens) (UniProt Q9Y2T6)
Sequence (Q9Y2T6 whole entry, looked up): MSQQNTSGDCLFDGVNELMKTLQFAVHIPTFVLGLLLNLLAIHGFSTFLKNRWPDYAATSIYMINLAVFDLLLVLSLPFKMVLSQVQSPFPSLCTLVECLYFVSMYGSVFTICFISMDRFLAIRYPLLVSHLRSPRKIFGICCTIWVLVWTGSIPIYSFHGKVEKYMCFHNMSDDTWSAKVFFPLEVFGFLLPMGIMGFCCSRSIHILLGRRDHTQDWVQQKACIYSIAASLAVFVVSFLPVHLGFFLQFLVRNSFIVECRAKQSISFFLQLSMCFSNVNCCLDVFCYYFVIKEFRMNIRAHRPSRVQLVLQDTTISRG
Assay: GPR55 antagonists blocking LPI-driven arrestin recruitment, primary screen, imaging, U2OS, beta-arrestin-GFP, LPI agonist (AID 2013);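 note: U2OS cells stably carrying GPR55 and arrestin-GFP stimulated by 5 µM LPI near EC80; imaged beta-arrestin-GFP aggregate spots per cell after agonist stimulation; plate controls were LPI-stimulated DMSO wells for no effect and DMSO wells without LPI for full effect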
Conditions: U2OS GPR55 beta-arrestin-GFP translocation imaging, LPI antagonism; at 10 µM; hits give high values
The campaign covered roughly 290,000 compounds. About 370 (0.13%) were called active. This is one part of a sample in which actives are shown more often than they occur. Entries with a potency or affinity are not part of this list.
Measured property: inhibition (%)

> print(dat)
                                    compound  unit.annotation  obs.value
 1                   O=C(O)c1ccccc1NCc1ccsc1                %       -6.3
 2             CC(=NCCc1ccccc1)C1=C(O)COC1=O                %       13.7
 3  CCN(CC1COc2ccccc2O1)C(=S)NCCCN(C)C (stereo unspecified)                %        5.9
 4  O=C(Cc1coc2ccc3ccccc3c12)NC1CCCc2ccccc21 (stereo unspecified)                %       -1.1
 5              S=c1[nH]nc(CCc2ccc(Cl)cc2)o1                %        9.7
 6     O=C(CCS(=O)(=O)c1cccc2nonc12)N1CCOCC1                %       -5.5
 7  CCCSc1ncc(Cl)c(C(=O)Nc2ccc(S(=O)(=O)Nc3ncccn3)cc2)n1                %        7.3
 8  Cc1cc(C)c(C2C(C#N)=C(N)Oc3n[nH]c(C)c32)cc1CN1CCCC1 (stereo unspecified)                %        7.5
 9  O=C(NCc1ccccc1Cl)c1ccc2c(c1)SC1=NS(=O)(=O)CCN12                %       -9.3
10    C/C(Cl)=C\CSc1nnc2n(N)c(=O)c3ccccc3n12                %      -16.2
11  COc1ccc(C(=O)NCC2(c3ccc(OC)c(OC)c3)CCCC2)c(OC)c1                %       -8.5

====

Biological target: G-protein coupled receptor 55 (Homo sapiens) (UniProt Q9Y2T6)
Assay: GPR55 antagonists blocking LPI-driven arrestin recruitment, primary screen, imaging, U2OS, beta-arrestin-GFP, LPI agonist (AID 2013);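 note: U2OS cells stably carrying GPR55 and arrestin-GFP stimulated by 5 µM LPI near EC80; imaged beta-arrestin-GFP aggregate spots per cell after agonist stimulation; plate controls were LPI-stimulated DMSO wells for no effect and DMSO wells without LPI for full effect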
Settings: U2OS GPR55 beta-arrestin-GFP translocation imaging, LPI antagonism; at 10 µM
The campaign covered roughly 290,000 compounds. About 370 (0.13%) were called active.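 The calls were made as follows: active = spots per cell inhibited over 60%, with over 100 cells counted and total cytoplasm intensity under 500,000; inconclusive = wells with under 100 cells, flagged as likely toxic; inactive = the rest.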 The sample as a whole holds a higher share of actives than the screen did. Results with a measured potency or affinity are listed apart.
Classes used: label 1 = active, label 0 = inactive

> print(dat)
                                    compound    group
 1  O=C(O)c1cc2c(cc1NC(=O)c1ccccc1OC(F)F)OCCCO2  label 0
 2                   COc1ccc2[nH]cc(C=O)c2c1  label 0
 3  COc1ccc(C2c3sc(=O)[nH]c3SC3C4CCC(C4)C23)cc1OC (configuration not stated)  label 0
 4          Cc1sc2nc(CC(=O)NN)[nH]c(=O)c2c1C  label 0
 5  COc1cc(C2c3c(oc4ccc(C)cc4c3=O)C(=O)N2c2cc(C)ccn2)cc(OC)c1OC (configuration not stated)  label 0
 6  O=C(Nc1ccc(-n2cnnn2)cc1)C(c1ccccc1)c1ccccc1  label 0
 7  COc1cc(C2c3c(oc4cc(C)c(C)cc4c3=O)C(=O)N2c2cc(C)ccn2)ccc1O (configuration not stated)  label 0
 8  Cc1cc(OCC(=O)Nc2ccc(CN3CCOCC3)cc2)c2c(C)c(C)c(=O)oc2c1  label 0
 9      CCOC(=O)c1nc(Nc2ccc(C)cc2)c2ccccc2n1  label 0
10  CC(=O)Nc1ccc(NC(=O)c2ccc(C)c(S(=O)(=O)Nc3cccc(C)c3)c2)cc1  label 0
11  COc1ccc([N+](=O)[O-])cc1N(CC(=O)NCCC1=CCCCC1)S(C)(=O)=O  label 0
12         CCOC(=O)c1nc(Nc2ccccc2)c2ccccc2n1  label 0
13  COc1ccc(C2c3c(oc4ccc(C)cc4c3=O)C(=O)N2c2cc(C)ccn2)cc1OC (configuration not stated)  label 1
14                 CSc1ccccc1C(=O)NCc1cccnc1  label 0
15             COc1ccc(N2C(=O)CCC2=O)c(OC)c1  label 0
16  CCCc1nnc2n1N=C(c1ccc(-c3cc(Cl)ccc3Cl)o1)CS2  label 0
17          O=Cc1cn(CC(=O)N2CCOCC2)c2ccccc12  label 0
18          CC(C)Nc1nc(Cl)nc(NCCOc2ccccc2)n1  label 0
19  Cc1nnc(SCC2=C(C(=O)O)N3C(=O)C(NC(=O)C(C)n4nc(C(F)(F)F)cc4C)C3SC2)s1 (configuration not stated)  label 0
20  O=C1NC(=O)/C(=C\c2cn(CC(=O)N3CCOCC3)c3ccccc23)S1  label 0
21  COc1ccc(C2c3sc(=O)[nH]c3SC3C4CCC(C4)C23)cc1 (configuration not stated)  label 0
22  CCCCC(C(=O)NC1CCCC1)N(C(=O)c1snc(C(N)=O)c1N)c1ccc(OCC)cc1 (configuration not stated)  label 0

====

Target: G-protein coupled receptor 55 (Homo sapiens) (UniProt Q9Y2T6)
Assay: GPR55 antagonists blocking LPI-driven arrestin recruitment, primary screen, imaging, U2OS, beta-arrestin-GFP, LPI agonist (AID 2013);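 note: U2OS cells stably carrying GPR55 and arrestin-GFP stimulated by 5 µM LPI near EC80; imaged beta-arrestin-GFP aggregate spots per cell after agonist stimulation; plate controls were LPI-stimulated DMSO wells for no effect and DMSO wells without LPI for full effect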
Conditions: U2OS GPR55 beta-arrestin-GFP translocation imaging, LPI antagonism; at 10 µM; hits give high values
Among all 290,000 compounds or so, about 370 (0.13%) were called active. For the sample, actives were picked, then their nearest neighbours and some compounds at random. Results with a measured potency or affinity are listed apart.
Quick reference for inhibition among some compounds
Measured property: inhibition (%)

> print(dat)
                                   compound  measured.property  obs.value
1            CC(C)CC(=O)NNC(=O)c1ccc(Cl)cc1         inhibition        4.3
2  Cc1c(CCOC(=O)c2ccccc2)sc[n+]1CC(=O)c1ccc(Br)cc1         inhibition        -14
3  CN1CC2(C)CN(C(c3ccccc3)c3ccccc3)CC(C)(C1)C2O (stereo unspecified)         inhibition        5.6
4  O=C(CNC(=S)N(Cc1ccc(F)cc1)C1CCCCC1)NCCN1CCOCC1         inhibition       12.3
5  COc1ccc(C(=O)NC(Oc2ccccc2)C(Cl)(Cl)Cl)cc1 (stereo unspecified)         inhibition       -6.6
6  Clc1ccc(C(c2ccccc2)N2CCNCC2)cc1 (stereo unspecified)         inhibition         20

====

Listed next: entries and their corresponding inhibition.
Biological target: G-protein coupled receptor 55 (Homo sapiens)
Test: GPR55 antagonists blocking LPI-driven arrestin recruitment, primary screen, imaging, U2OS, beta-arrestin-GFP, LPI agonist (AID 2013);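 note: U2OS cells stably carrying GPR55 and arrestin-GFP stimulated by 5 µM LPI near EC80; imaged beta-arrestin-GFP aggregate spots per cell after agonist stimulation; plate controls were LPI-stimulated DMSO wells for no effect and DMSO wells without LPI for full effect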
Details: U2OS GPR55 beta-arrestin-GFP translocation imaging, LPI antagonism; at 10 µM; hits give high values
Hit rate of the full screen: of about 290,000 compounds, about 370 (0.13%) were called active. The entries come from a sample that favours actives as a whole. Measured potencies and affinities stand elsewhere.
Measured property: inhibition (%)

> print(dat)
                                    compound  obs.value
 1       Cc1nc(C(Cl)(Cl)Cl)nc2[nH]ccc(=O)c12        4.1
 2  COc1cccc(-n2c(=O)c3sccc3n(CC(=O)NC3CCCCC3)c2=O)c1      -10.7
 3  CN1/C(=C\C(=O)CSc2cccc[n+]2[O-])C(C)(C)c2ccccc21        0.8
 4  Cc1ccc(N2C(=O)CC(N(CCc3ccccc3)C(=S)Nc3ccc(N(C)C)cc3)C2=O)cc1 (stereo not given)        0.8
 5  Cc1onc(-c2ccc(Cl)cc2Cl)c1C(=O)/C=C/N(C)C        3.5
 6  Cc1c(Br)c([N+](=O)[O-])nn1CC(=O)N1CCN(C23CC4CC(CC(C4)C2)C3)CC1       10.9
 7  O=C(Cn1c(=O)c(=O)n(Cc2ccccc2)c2ccc(Cl)cc21)Nc1cccc(F)c1       -4.5
 8  CN1/C(=C\C(=O)CSc2nncn2C)C(C)(C)c2ccccc21       -7.6
 9  CCOC(=O)C(=O)c1cn(C2OCC(OC(C)=O)C(OC(C)=O)C2OC(C)=O)c2ccccc12 (stereo not given)        6.8
10       Cc1ccc(C(C)C)cc1S(=O)(=O)NCc1ccccn1        8.4
